test system: CT26 cells; assay: In vitro cytotoxicity of NCP-2/MTX; type: cell-based, murine; conditions: CT26, drug ratio 2:1; read-out: Oxaliplatin IC50
readout_kind: IC50 (µM)
Answers are plain numbers, in µM.

Memo: `O=C1[O][Pt]2([NH][C@@H]3CCCC[C@H]3[NH]2)[O]C1=O` , reported IC50: 7.05

* * *

test system: SKOV-3 cells; experiment: In vitro cytotoxicity in ovarian cancer cells, MTS, 72 h; type: cell-based; conditions: Homo sapiens, SK-OV-3; SKOV-3, 72 h, DHA concentration; read-out: IC50 of DHA (numbers in parenthesis)
readout_kind: IC50 (µM)
Give bare numbers, in µM.

Record C[C@H]1[C@@H](O)O[C@@H]2O[C@@]3(C)CC[C@H]4[C@H](C)CC[C@@H]1[C@@]24OO3 [DHA, dihydroartemisinin] . Reported IC50: 9.9

* * *

Tested on: A2780/CDDP cells
Experiment: In vitro cytotoxicity of cisplatin, OTS167 and NCP-1/OTS167
Assay type: cell-based
Conditions: OTS167 concentration, read-out: IC50, OTS167
Protocol: The cytotoxicity of NCP-1/OTS167 with different molar ratio was then evaluated.
readout_kind: IC50 (nM)
One number for each entry, in nM.

Form field, IC50 with A2780/CDDP cells, item `CC(=O)c1cnc2ccc(-c3cc(Cl)c(O)c(Cl)c3)nc2c1N[C@H]1CC[C@H](CN(C)C)CC1` : 12.1

* * *

test system: HT29 cells; assay: In vitro PDT cytotoxicity; assay type: cell-based, human; conditions: HT29, irradiation Yes (670 nm, 54 J/cm^2); read-out: Oxaliplatin IC50
readout_kind: pIC50
Numbers only, as −log10 of the molar value.

Value of measured pIC50 for the entry O=C1[O][Pt]2([NH][C@@H]3CCCC[C@H]3[NH]2)[O]C1=O [oxaliplatin] : 5.73

* * *

test system: CT26 cells; assay: In vitro cytotoxicity of NCP-2/PTX, MTS; format: cell-based, murine; settings: CT26 (cell-line cell empty), drug ratio 2:1; read-out: Oxaliplatin IC50
readout_kind: pIC50
Answers are plain numbers, as −log10 of the molar value.

Item: `O=C1[O][Pt]2([NH][C@@H]3CCCC[C@H]3[NH]2)[O]C1=O` | pIC50: 4.99

* * *

test system: A2780/CDDP cells; test: In vitro cytotoxicity of cisplatin, OTS167 and NCP-1/OTS167; type: cell-based; settings: cisplatin concentration, read-out: IC50, Cisplatin
readout_kind: IC50 (µM)
Numbers only, in µM.

Item: N.N.[Cl][Pt][Cl] [Cisplatin, cisplatin] | IC50: 12.8

* * *

test system: CT26 cells; test: In vitro cytotoxicity of NCP-2/PTX, MTS; type: cell-based, murine; settings: CT26, drug ratio 1:1; read-out: Oxaliplatin IC50
readout_kind: IC50 (µM)
Answers are plain numbers, in µM.

Entry O=C1[O][Pt]2([NH][C@@H]3CCCC[C@H]3[NH]2)[O]C1=O [oxaliplatin] — recorded IC50 = 7.05

* * *

system: A2780/CDDP cells; assay: In vitro cytotoxicity in ovarian cancer cells, MTS, 72 h; assay type: cell-based; details: DHA concentration, read-out: IC50 of DHA (numbers in parenthesis)
readout_kind: pIC50
Answers are plain numbers, as −log10 of the molar value.

Looking up C[C@H]1[C@@H](O)O[C@@H]2O[C@@]3(C)CC[C@H]4[C@H](C)CC[C@@H]1[C@@]24OO3 [DHA, dihydroartemisinin] , I see its pIC50 listed as 5.58

* * *

system: CT26 cells; test: In vitro PDT cytotoxicity; assay type: cell-based, murine; conditions: CT26, irradiation No; read-out: Oxaliplatin IC50
readout_kind: pIC50
Answers are plain numbers, as −log10 of the molar value.

pIC50 recorded for this molecule, O=C1[O][Pt]2([NH][C@@H]3CCCC[C@H]3[NH]2)[O]C1=O [oxaliplatin] , is 5.30

Hey, just so you know, these numbers are from patent US11246877B2.
